IC50 for assorted compounds
- Target system: PDE10A1 (Homo sapiens (Human), UniProt Q9Y233)
- Sequence (Q9Y233 other isoform, or with tags, fused parts or gaps): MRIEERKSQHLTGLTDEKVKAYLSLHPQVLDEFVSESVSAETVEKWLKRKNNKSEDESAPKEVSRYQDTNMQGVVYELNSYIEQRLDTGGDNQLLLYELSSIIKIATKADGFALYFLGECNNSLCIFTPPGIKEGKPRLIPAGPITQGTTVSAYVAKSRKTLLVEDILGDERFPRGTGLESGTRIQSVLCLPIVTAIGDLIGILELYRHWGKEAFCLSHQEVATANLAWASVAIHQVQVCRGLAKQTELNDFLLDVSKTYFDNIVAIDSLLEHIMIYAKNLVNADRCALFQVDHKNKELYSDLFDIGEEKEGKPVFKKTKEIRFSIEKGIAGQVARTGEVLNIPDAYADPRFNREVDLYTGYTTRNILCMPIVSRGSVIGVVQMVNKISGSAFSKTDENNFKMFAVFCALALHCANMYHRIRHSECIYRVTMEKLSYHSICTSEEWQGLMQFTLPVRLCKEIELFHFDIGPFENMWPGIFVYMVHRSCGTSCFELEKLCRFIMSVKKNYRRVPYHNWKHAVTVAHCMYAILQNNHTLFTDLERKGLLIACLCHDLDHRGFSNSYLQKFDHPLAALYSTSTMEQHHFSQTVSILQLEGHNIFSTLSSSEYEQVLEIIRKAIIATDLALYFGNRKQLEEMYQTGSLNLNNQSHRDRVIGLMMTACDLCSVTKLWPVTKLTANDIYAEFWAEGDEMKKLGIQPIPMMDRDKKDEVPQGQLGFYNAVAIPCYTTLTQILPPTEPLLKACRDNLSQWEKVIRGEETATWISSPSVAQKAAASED
- Measurement description: Phosphodiesterase 10 (PDE10) Enzyme Activity Assay
- Type: biochemical
- Condition details: read-out: IC50 (μM), n = 1, inhibition of PDE10A1; SPA, [3H]-cGMP substrate, maximal compound concentration 10 μM
Reported property: IC50 (µM)

chemical_smiles=Cc1cc(Cc2nc3ccc(C(=O)O)cc3n2C[C@@H]2CCO2)ccc1-c1cccc(OCc2ccc(C#N)cc2F)n1 reported_property=IC50 censoring_qualifier=> numeric_value=10
chemical_smiles=Cc1cc(Cc2nc3ccc(C(=O)O)cc3n2C[C@@H]2CCO2)c(F)cc1-c1cccc(OCc2ccc(C#N)cc2F)n1 reported_property=IC50 censoring_qualifier== numeric_value=7.43
chemical_smiles=N#Cc1ccc(COc2cccc(-c3cc(F)c(Cc4nc5ccc(C(=O)O)cc5n4C[C@@H]4CCO4)c(F)c3)n2)c(F)c1 reported_property=IC50 censoring_qualifier== numeric_value=5.41
chemical_smiles=N#Cc1ccc(COc2cccc(-c3ccc(Cc4nc5ccc(C(=O)O)cc5n4C[C@@H]4CCO4)c(F)c3)n2)c(F)c1 reported_property=IC50 censoring_qualifier=> numeric_value=10
